Assay: In vivo stability in rat blood and urine
Settings: rat urine
The reader will find reported % Intact 18F-compound, Urine 1 h values listed item by item below.
The figure you give is taken to be in %; do not add the unit.

Here are 3 compounds together with their reported answers.
> print(dat)
                                   compound  unit.symbol  data.value
1  COc1cc(OCCF)cc(OC)c1NC(=O)c1ccc(Oc2cc3c(cc2C)CCC3(C)C)o1 [[^18F]SB-004-RS]            %          99
2  COc1cc(NCCCF)cc(OC)c1NC(=O)c1ccc(Oc2cc3c(cc2C)CCC3(C)C)o1 [[^18F]SB-002-RS]            %          99
3  COc1cc(NCCCF)cc(OC)c1NC(=O)c1ccc(Cc2cc3c(cc2C)CCCC3(C)C)o1 [[^18F]SB-001-RS]            %        94.5

# input for lookup
Request: Return reported % Intact 18F-compound, Urine 1 h; argument: COc1cc(OCCF)cc(OC)c1NC(=O)c1ccc(Cc2cc3c(cc2C)CCCC3(C)C)o1 [[^18F]SB-003-RS]
Response: 18.5

----------
Assay: Log D / Log P of pilot compounds, experimentally determined
Format: physicochemical
Conditions: pH 7.4; experimentally determined; read-out: CLog D (pH 7.4)
measurement-type: logD
Lab note: jot down the number only; don't add units.

Request: Consider the molecule shown here: COc1nc(OCC[18F])nc(OC)c1NC(=O)c1ccc(Oc2cc3c(cc2C)CCC3(C)C)o1 [[^18F]SB7-65-18] What is its recorded logD?
Response: 1.22

----------
Target: rat GnRH receptor (Rattus norvegicus)
Construct: expressed in transfected cells; host or cells: HEK 293 cells (transient transfection, membranes prepared 48 h later)
Sequence (P30969 whole entry): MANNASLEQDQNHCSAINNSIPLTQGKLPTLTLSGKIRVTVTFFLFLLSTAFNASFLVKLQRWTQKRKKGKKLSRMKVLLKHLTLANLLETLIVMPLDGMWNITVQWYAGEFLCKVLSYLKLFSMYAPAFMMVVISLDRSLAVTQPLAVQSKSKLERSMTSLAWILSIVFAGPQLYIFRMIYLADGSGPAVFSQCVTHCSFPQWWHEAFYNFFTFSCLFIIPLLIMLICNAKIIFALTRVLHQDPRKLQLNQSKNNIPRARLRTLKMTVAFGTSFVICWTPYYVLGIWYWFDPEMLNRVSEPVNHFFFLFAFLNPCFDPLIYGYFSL
Experiment: Radioligand binding, membranes of HEK 293 cells expressing rat GnRH receptor, [125I] LH-RH Dtrp6
measurement-type: pKi
Convention used: pKi is expressed as -log10 of the molar concentration.

> print(dat)
                                   compound                                 target  measurement.type  data.value
1  COc1nc(OCC[18F])nc(OC)c1NC(=O)c1ccc(Oc2cc3c(cc2C)CCC3(C)C)o1 [[^18F]SB7-65-18]  rat GnRH receptor (Rattus norvegicus)               pKi        8.87

We now examine a further compound.
Request: Consider the compound COc1nc([18F])nc(OC)c1NC(=O)c1ccc(Oc2cc3c(cc2C)CCC3(C)C)o1 [[^18F]SB7-65-19] and give its measured pKi.
Response: 7.38
